Molecular target: T1, huCD33-G69-Fc recombinant protein (human, UniProt P20138 18-259);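 note: biolayer interferometry: scFvs captured from periplasmic extracts on anti-V5-loaded streptavidin biosensors, antigen association for 2 min, buffer dissociation for 5 min, 1:1 Langmuir fit giving off-rate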
T1 construct: extracellular domain; also called CD33 R69G
T1 sequence (P20138 18-259 R69G): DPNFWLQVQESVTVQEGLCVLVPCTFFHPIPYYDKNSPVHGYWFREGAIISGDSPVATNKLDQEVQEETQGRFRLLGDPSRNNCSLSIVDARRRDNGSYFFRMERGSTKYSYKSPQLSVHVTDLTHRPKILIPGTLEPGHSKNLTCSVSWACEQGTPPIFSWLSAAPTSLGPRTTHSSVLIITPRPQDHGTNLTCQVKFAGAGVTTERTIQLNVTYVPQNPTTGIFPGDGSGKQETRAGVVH
Assay: BLI

BINDER	binding result
Polypeptide No. 99 (scFv, V domains shown, scFv) VH: QVQLVQSGAEVKKPGSSVKVSCKASGYTFSDYHIHWVRQAPGQGLEWMGWMNPNSGNTGYAQKFQGRVTITADESTSTAYMELSSLRSEDTAVYYCARTHSSGYYYWFDPWGQGTLVTVSS VL: DIQMTQSPSSLSASVGDRVTITCRASQGISNNLNWYQQKPGKAPKLLIYQASNKDTGVPSRFSGSGSGTDFTLTISSLQPEDFATYYCQQSYSSPPTFGQGTKVEIKR	binds
Polypeptide No. 117 (scFv, V domains shown, scFv) VH: EVQLLESGGGLVQPGGSLRLSCAASGFTFGDYPMSWVRQAPGKGLEWVAGISYDGLNEHYADSVKGRFTISRDNSKNTLYLQMNSLRAEDTAVYYCARDRDSGPSGFQHWGQGTLVTVSS VL: DIQMTQSPSSLSASVGDRVTITCRASQTIGTWLAWYQQKPGKAPKLLIYDASSLESGVPSRFSGSGSGTDFTLTISSLQPEDFATYYCQQSYSTPPTFGQGTKVEIKR	binds
Polypeptide No. 132 (scFv, V domains shown, scFv) VH: EVQLLESGGGLVQPGGSLRLSCAASGFTFNNYGMHWVRQAPGKGLEWVSAISGSGGSTYYADSVKGRFTISRDNSKNTLYLQMNSLRAEDTAVYYCAREYMQQPHGGMDVWGQGTTVTVSS VL: EIVMTQSPATLSVSPGERATLSCRASQSVNSYLAWYQQKPGQAPRLLIYGASTRATGIPARFSGSGSGTEFTLTISSLQSEDFAVYYCQQYGSSPLSFGGGTKVEIKR	binds
